survival values, listed per item
- Tested on: DeltatarO mutant
- PROTOCOL_TEXT: S. aureus survival, RN4220 and DeltatarO strains – OD600, teichoic acid synthesis inhibitors, primary screen (AID 463173)
- TEST_CONDITIONS: S. aureus RN4220 wild type/DeltatarO growth, OD600, 18 h, active compounds read low, screened at 18.75 µg/mL (by protocol)
Among all 52,000 compounds or so, about 4,300 (8.3%) were called active. The list comes from a sample in which actives are over-represented; it also holds close analogues and randomly drawn compounds.
REPORTED_ENDPOINT: survival (%)

compound="Cc1ccccc1OCC(=O)N(Cc1ccc(C(C)C)cc1)C1CCS(=O)(=O)C1 (stereo unspecified)" reported_endpoint=survival value_reported=31
compound=CC(=O)N1CCCc2cc(S(=O)(=O)N3CCC(C(=O)NC4CCCCC4)CC3)ccc21 reported_endpoint=survival value_reported=94
compound="CC1CCc2c(sc(NC(=O)CCCOc3ccccc3)c2C(N)=O)C1 (stereo unspecified)" reported_endpoint=survival value_reported=78
compound="CN(C)c1ccc(C(CNS(=O)(=O)c2ccc(F)cc2)N2CCc3ccccc32)cc1 (stereo unspecified)" reported_endpoint=survival value_reported=32
compound=CCCOc1ccc(-c2cccc(NS(=O)(=O)c3cc(OC)ccc3OC)c2)nn1 reported_endpoint=survival value_reported=99
compound=COc1ccc(CCNC(=O)CN2C(=O)COc3ccc(C)cc32)cc1OC reported_endpoint=survival value_reported=45
compound=Cc1ccc(CNC(=O)CCCN2C(=O)COc3ccc(C)cc32)cc1 reported_endpoint=survival value_reported=85
compound=Cc1ccc(OCc2nc(-c3ccc(C(=O)N4CCN(c5ccc(Cl)cc5)CC4)cc3)oc2C)cc1 reported_endpoint=survival value_reported=76
compound="CC(C)C1C(=O)Nc2ccc(S(=O)(=O)NCCc3ccc(Cl)cc3)cc21 (stereo unspecified)" reported_endpoint=survival value_reported=77
compound=CC(=O)N1CCCc2cc(S(=O)(=O)N3CCC(N(C)C(C)C)CC3)ccc21 reported_endpoint=survival value_reported=94
compound="Cc1ccc(CN(C(=O)COc2ccc(C(C)C)cc2)C2CCS(=O)(=O)C2)o1 (stereo unspecified)" reported_endpoint=survival value_reported=87
compound=COC(=O)c1c(NC(=O)CCCOc2ccc(C)cc2)sc2c1CCCC2 reported_endpoint=survival value_reported=8
compound=Cc1ccc2c(c1)N(CC(=O)NCCc1ccccc1)C(=O)CO2 reported_endpoint=survival value_reported=45
compound="Cc1ccc(S(=O)(=O)NCC(c2ccc(N(C)C)cc2)N2CCc3ccccc32)cc1C (stereo unspecified)" reported_endpoint=survival value_reported=131
compound="CN(C)c1ccc(C(CNS(=O)(=O)c2ccccc2)N2CCc3ccccc32)cc1 (stereo unspecified)" reported_endpoint=survival value_reported=99
compound=COc1ccc(CCNC(=O)CN2C(=O)COc3ccccc32)cc1OC reported_endpoint=survival value_reported=126
compound="COC(=O)c1c(NC(=O)CCCOc2ccccc2)sc2c1CCC(C)C2 (stereo unspecified)" reported_endpoint=survival value_reported=2
compound=CCOC(=O)N1CCC(NC(=O)c2cnn(-c3cccc(C)c3)c2-n2cccc2)CC1 reported_endpoint=survival value_reported=85
compound="COc1cccc(CNS(=O)(=O)c2ccc3c(c2)C(C(C)C)C(=O)N3)c1 (stereo unspecified)" reported_endpoint=survival value_reported=129
compound="Cc1ccsc1CN(C(=O)COc1ccccc1Cl)C1CCS(=O)(=O)C1 (stereo unspecified)" reported_endpoint=survival value_reported=86
compound=CCOc1ccccc1CN(CCc1ccc2c(c1)OCO2)Cc1cc(OC)c(OC)cc1OC reported_endpoint=survival value_reported=56
compound=COC(=O)c1c(NC(=O)CCCOc2ccccc2C)sc2c1CCC2 reported_endpoint=survival value_reported=4
compound=CCOC(=O)c1ccc(NS(=O)(=O)c2ccc3c(c2)n(C)c(=O)n3C)cc1 reported_endpoint=survival value_reported=96
compound="COc1ccccc1C(=O)NC1(C(F)(F)F)C(=O)Nc2c1c(=O)[nH]c(=O)n2-c1ccc(F)cc1 (stereo unspecified)" reported_endpoint=survival value_reported=190
compound="O=C(NCc1ccccc1)C1CCCN(c2ncccn2)C1 (stereo unspecified)" reported_endpoint=survival value_reported=88
compound="CCOc1ccc(S(=O)(=O)NCC(c2ccc(N(C)C)cc2)N2CCc3ccccc32)cc1 (stereo unspecified)" reported_endpoint=survival value_reported=49
compound=Cc1ccc(C2=Nc3ccccc3N(CC(=O)NCc3ccc(Cl)cc3)C(=O)C2)cc1C reported_endpoint=survival value_reported=55
compound=Cc1ccccc1OCC(=O)Nc1sc2c(c1C(=O)OC(C)C)CCCC2 reported_endpoint=survival value_reported=77
compound=CCOc1ccccc1CN(CCc1ccc2c(c1)OCO2)Cc1ccccn1 reported_endpoint=survival value_reported=77
compound=Cc1ccc2c(c1)N(CCC(=O)NCc1ccc(F)cc1)C(=O)CO2 reported_endpoint=survival value_reported=62
compound=O=C(NCc1cccs1)c1ccc(CSc2nc3ccncc3n2Cc2ccccc2)cc1 reported_endpoint=survival value_reported=110
compound=COc1cccc(CNC(=O)CN2C(=O)COc3ccc(S(=O)(=O)Nc4ccccc4)cc32)c1 reported_endpoint=survival value_reported=77
compound="CC(=O)N1CCCc2cc(S(=O)(=O)N3CCCC(C(=O)NCc4ccccc4Cl)C3)ccc21 (stereo unspecified)" reported_endpoint=survival value_reported=95
compound=Cn1c(=O)c2c(nc(SCC(=O)Nc3ccc(OC(F)(F)F)cc3)n2Cc2cccc(C(F)(F)F)c2)n(C)c1=O reported_endpoint=survival value_reported=86
compound=COc1ccc(N2CCN(C(=O)Nc3cn(CC(C)C)c(=O)c4ccccc34)CC2)cc1 reported_endpoint=survival value_reported=83
compound="Cc1ccsc1CN(C(=O)COc1cccc(C)c1C)C1CCS(=O)(=O)C1 (stereo unspecified)" reported_endpoint=survival value_reported=82
compound=Cc1ccc(CNC(=O)CCN2C(=O)COc3ccc(C)cc32)cc1 reported_endpoint=survival value_reported=50
compound=Cc1ccc(CNC(=O)CN2C(=O)COc3ccc(S(=O)(=O)Nc4ccccc4)cc32)cc1 reported_endpoint=survival value_reported=-4
compound=COc1ccc(CNC(=O)c2cc3ccccn3n2)cc1OC reported_endpoint=survival value_reported=79
compound=COC(=O)c1c(NC(=O)COc2ccc(Cl)cc2C)sc2c1CCCCC2 reported_endpoint=survival value_reported=68
compound=N#C/C(=C\c1cn(Cc2ccc(C#N)cc2)c2ccccc12)C(=O)NCc1ccco1 reported_endpoint=survival value_reported=67

// data source = PubChem BioAssay AID463173
